- Tested on: Cryptococcus neoformans
- CONDITION_DESCRIPTION: Concentration 20 uM; ASSAY_TEST Inhibition of Fungal Growth; detection method Resazurin; Absorption (OD600-OD570); plate type 384well; NBS; CORNING #3640
- Description: Antifungal activity against Cryptococcus neoformans H99 ATCC 208821 (CO-ADD:FG_002); MIC in YNB media using NBS plates, by Resazurin OD(600-570)
Results with a measured potency or affinity are listed apart.
REPORTED_METRIC: Inhibition (%)
# number only, unit % dropped from output

Below: 5 compounds and their reported Inhibition.
COMPOUND: Cc1nc2c(O)cccc2cc1CO
ASSAYED_SYSTEM: Cryptococcus neoformans
Inhibition / %: -5.84
--
COMPOUND: O=C(O)C(c1ccccc1)C1(O)CCCCC1 (configuration not stated)
ASSAYED_SYSTEM: Cryptococcus neoformans
Inhibition / %: -11.66
--
COMPOUND: CC1(C)CC(=O)C(CC(=O)c2ccccc2)=C(NNC(=N)N)C1
ASSAYED_SYSTEM: Cryptococcus neoformans
Inhibition / %: -4.09
--
COMPOUND: O=C(Nc1ccc2ncccc2c1)Nc1ccc2ncccc2c1
ASSAYED_SYSTEM: Cryptococcus neoformans
Inhibition / %: -19.53
--
COMPOUND: COc1c(O)ccc2c1CN1CCc3cc4c(cc3C1C2)OCO4 (configuration not stated)
ASSAYED_SYSTEM: Cryptococcus neoformans
Inhibition / %: -12.68

For this compound ( Fc1ccc(-c2cc(-c3cccs3)cc(-c3ccccc3)n2)cc1 ), measured Inhibition is -7.45

For this compound ( CCNc1nc(Cl)nc(-c2cn(-c3ccccc3)c3ccccc23)n1 ), measured Inhibition is -5.12
